Target: biotinylated nerve growth factor (NGF) (human, UniProt P01138 122-241, biotin (biotinylated in-house, sites not stated))
Sequence (P01138 122-241): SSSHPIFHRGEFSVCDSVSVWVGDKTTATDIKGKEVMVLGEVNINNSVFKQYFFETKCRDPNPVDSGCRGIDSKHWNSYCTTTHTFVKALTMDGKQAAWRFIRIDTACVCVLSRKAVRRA
Experiment: FRET; epitope competition with labelled IgGWFL
# pIC50 values compiled below
Hey, just a heads up that pIC50 is the negative log base 10 of the concentration in molar.

Here's what some known entries look like.
| binder | value-type | observed |
| --- | --- | --- |
| evolved scFvWFL variant 176 reformatted as IgG1 (antibody, V domains shown) VH: QVQLVRSGAEVKKPGSSVKVSCKASGGTFWFGAFTWVRQAPGQGLEWMGGIIPIFGLTNLAQNFQGRVTITADESTSTVYMELSSLRSEDTAVYYCARSSRIYDLNPSLTAYYDMDVWGQGTMVTVSS VL: QSVLTQPPSVSAAPGQKVTISCSGSSSDIGNNYVSWYQQLPGTAPKLLIYDNNKRPSGIPDRFSGSKSGTSATLGITGLQTGDEADYYCGTWDSSLSAWVFGGGTKLTVL | pIC50 | 9.70 |
| evolved scFvWFL variant 139 reformatted as IgG1 (antibody, V domains shown) VH: QVQLVQSGAEVKKPGSSVKVSCKAGGGTFWSGAFTWVRQAPGQGLEWMGGIIPIFGLTNLAQNFQGRVTITADESTSTVYMELSSLRSEDTAVYYCARSSRTYDLNPSLTAYYDMDVWGQGTMVTVSS VL: QSVLTQPPSVSAAPGQKVTISCSGSSSDIGNNYVSWYQQLPGTAPKLLIYDNNKRPSGIPDRFSGSKSGTTATLGITGLQTGDEADYYCGTWDSSLSAWVFGGGTKLTVL | pIC50 | 9.19 |
| evolved scFvWFL variant 37 reformatted as IgG1 (antibody, V domains shown) VH: QVQLVPSGAEVKKPGSSVKVSCKASGGTFWFGAFTWVRQAPGQGLEWMGGIIPTFGLTNLAQNFQGRVTITADESTSTVYMELSSLRSEDTAVYYCARSSRIYDLNPSLTAYYDMDVWGQGTMVTVSS VL: QSVLTQPPSVSAAPGQKVTISCSGPSSDIGNNYVSWYQQLPGTAPKLLIYDNNKRPSGIPDRFSGSKSGTSATLGITGLQTGDEADYYCGTWDSSLSAWVFGGGTKLTVL | pIC50 | 9.87 |
| evolved scFvWFL variant 59 reformatted as IgG1 (antibody, V domains shown) VH: QVQLVQSGAEVKKPGSSVKVSCKASGGTFRFGAFTWARQAPGQGLEWMGGIIPIFGLTNLAQNFQGRATITADESTSTVYMELSSLRSEDTAVYYCARSSRIYDLNPSLTAYYDMDVWGQGTMVTVSS VL: QSVLTQPPSVSAAPGQKVTISCSGSSSDIGNNYVSWYQQLPGTAPKLLTYDNNKRPSGIPGRFSGSKSGTSATLGITGLQTGDEADYYCGTWDSSLSAWVFGGGTKLTVL | pIC50 | 9.75 |
| evolved scFvWFL variant 11 reformatted as IgG1 (antibody, V domains shown) VH: QVQLVRSGAEVKKPGSSVKVSCKASGGTFWFGAFTWVRQAPGQGLEWMGGIIPIFGLTNLAQNFQGRVTITADESTSTVYMELSSLRSEDTAVYYCARSSRIYDLNPSLAAYYDMDVWGQGTMVTVSS VL: QSVLTQPPSVSAAPGQKVTIPCSGSSSDIGNNYVSWYQQLPGTAPKLLIYDNNKRPSGIPDRFSGSKSGTSATLGVTGLQTGDEADYYCGTWDSSLSAWVFGGGTKLTVL | pIC50 | 9.60 |
| IgGSTT, variant of MEDI1912 with W35S, F36T and L64T in VH (antibody, V domains shown) VH: QVQLVQSGAEVKKPGSSVKVSCKASGGTFSTGAFTWVRQAPGQGLEWMGGIIPIFGTTNLAQNFQGRVTITADESTSTVYMELSSLRSEDTAVYYCARSSRIYDLNPSLTAYYDMDVWGQGTMVTVSS VL: QSVLTQPPSVSAAPGQKVTISCSGSSSDIGNNYVSWYQQLPGTAPKLLIYDNNKRPSGIPDRFSGSKSGTSATLGITGLQTGDEADYYCGTWDSSLSAWVFGGGTKLTVL | pIC50 | 9.24 |
| IgGWFL (MEDI1912), human IgG1 antibody specific for human nerve growth factor (antibody, V domains shown) VH: QVQLVQSGAEVKKPGSSVKVSCKASGGTFWFGAFTWVRQAPGQGLEWMGGIIPIFGLTNLAQNFQGRVTITADESTSTVYMELSSLRSEDTAVYYCARSSRIYDLNPSLTAYYDMDVWGQGTMVTVSS VL: QSVLTQPPSVSAAPGQKVTISCSGSSSDIGNNYVSWYQQLPGTAPKLLIYDNNKRPSGIPDRFSGSKSGTSATLGITGLQTGDEADYYCGTWDSSLSAWVFGGGTKLTVL | pIC50 | 9.44 |
| evolved scFvWFL variant 130 reformatted as IgG1 (antibody, V domains shown) VH: QVQLVQSGAEVKKPGSSVKVSCKASGGAFWFGAFTWVRQAPGQGLEWMGGITPIFGHTNLAQNFQGRVTITADESTSTVYMELSSLRSEDTAVYYCARSSRIYDLNPSLTAYYDMDVWGQGTMVTVSS VL: QSVLTQPPSVSAAPGQKVTISCSGSSSDIGNNYVSWYQQLPGTAPKLLIYDNNKRPSGIPDRFSGSKSGTSATLGITGLQTGDEADYYCGTWDSSLSAWVFGGGTKLTVL | pIC50 | 8.69 |

## Task Hello, please tell me recorded pIC50 for this one: evolved scFvWFL variant 16 reformatted as IgG1 (antibody, V domains shown) VH: QVQLVQSGAEVKKPGSSVKVSCKASGGTFWSGAFTWVRQAPGQGLEWMGGIIPISGLTNLAQNFQGRVTITADESTSTAYMELSSLRSEDTAVYYCARSSRIYDLNPSLTAYYDMDVWGQGTMVTVSS VL: QSVLTQPPSVSAAPGQKVTISCSGSSSDIGNNYVSWYQQLPGTAPKLLIYDNNKRPSGIPDRFSGSKSGTSATLGITGLQTGDEADYYCGTWDSSLSAWVIGGGTKLTVL
## Result 9.03

## Task Hello, please tell me recorded pIC50 for this one: evolved scFvWFL variant 128 reformatted as IgG1 (antibody, V domains shown) VH: QVQLVQSGAEVKKPGSSVKVSCKASGGTFWFGAFTWVRQAPGQGLEWMGGIIPIFGLTNLAQNFQGRVTITADESTSTVYMELSSLRSEDTAVYYCARSSRIYDLNPSLTADYDMDVWGQGTMVTVSS VL: QSVLTQPPSVSAAPGQEVTISCSGSSSDIGNNYVSWYQQPPGAAPKLLIYDNNKRPSGIPDRFSGSKSGTSATLGITGLQTGDEADYYCGTWDSSLSAWVFGGGTKLTVL
## Result 8.85

Sourced from paper PMC7156504
